Attribution: patent US20250249025A1

- Tested on: human prostate carcinoma cell line PC-3
- test_description: Rare sugar uptake experiment, sugar content in disrupted cell suspension of PC-3
- Format: cell-based
- run_conditions: PC-3; named sugar added to RPMI-1640 at 10 mM, 48 hours; HPLC after ABEE labeling
D-glucose content in cell for assorted molecules
Express the result in µg but write the number alone.

Consider the reported D-glucose content in cell for these molecules:
O=C(CO)[C@@H](O)[C@H](O)[C@H](O)CO 2.7
O=C(CO)[C@@H](O)[C@@H](O)[C@@H](O)CO 1.5
O=C[C@H](O)[C@@H](O)[C@H](O)[C@H](O)CO 6.7
O=C[C@H](O)[C@H](O)[C@H](O)[C@H](O)CO 3.8
OC[C@@H](O)[C@@H](O)[C@@H](O)[C@@H](O)CO 2.1

Next molecule, D-glucose content in cell to be filled in.
Ask | Quick one: D-glucose content in cell of `O=C(CO)[C@H](O)[C@H](O)[C@H](O)CO` ?
Reply | 1.6

###

- Tested on: human renal cell carcinoma cell line Caki-I
- test_description: Rare sugar uptake experiment, sugar content in disrupted cell suspension of Caki-I
- Type: cell-based
- run_conditions: Caki-I; named sugar added to RPMI-1640 at 10 mM, 48 hours; HPLC after ABEE labeling
reported_endpoint: D-glucose content in cell (µg)
# value in µg; strip the unit string

Solved entries (count: 5):
O=C(CO)[C@@H](O)[C@@H](O)[C@@H](O)CO 2.3
O=C[C@H](O)[C@@H](O)[C@H](O)[C@H](O)CO 4.4
OC[C@@H](O)[C@@H](O)[C@@H](O)[C@@H](O)CO 2.4
O=C(CO)[C@@H](O)[C@H](O)[C@H](O)CO 2.5
O=C(CO)[C@H](O)[C@H](O)[C@H](O)CO 2.3

Alright, here's another compound for you.
Ask | If you can, please state the reported D-glucose content in cell value of `O=C[C@H](O)[C@H](O)[C@H](O)[C@H](O)CO` .
Reply | 2.1
